tested on: SW-620 colon; experiment: NCI-60 one-dose screen, 48 h (100 = growth as untreated, 0 = no growth, -100 = all killed); settings: 10 µM unless noted
Compounds without any hit were thinned out: in the full panel of roughly 83,000, 20% have a hit.

compound: O=C(c1ccccc1)c1ccc2nc(-c3cccc(Cl)c3)[nH]c2c1
measurement.units: %
growth: 108
//
compound: Cc1cc2nc3c4ccccc4n(CCNCCN(C)C)c3nc2cc1C
measurement.units: %
growth: -19.6
//
compound: CCS(=O)(=O)N1CCCC(C(=O)Nc2nc3ccc(NC(=O)c4ccc(F)c(OC)c4F)cc3s2)C1 (stereo not given)
measurement.units: %
growth: 88.7
//
compound: COc1cc(OC)cc(-c2cc3ccc(N(C)C)cc3c(=O)[nH]2)c1
measurement.units: %
growth: 33.8
//
compound: COc1cc2oc(-c3cccc(C(=O)Nc4ccc(Cl)cc4)c3)cc(=O)c2c(OCCNC(=O)[C@H](CCC(=O)OC(C)(C)C)NC(=O)OC(C)(C)C)c1OC
measurement.units: %
growth: 112

---

system: U251 CNS; assay: NCI-60 one-dose screen, 48 h; conditions: 10 µM unless noted
This is part of a sample that, as a whole, favours compounds with a hit. Of some 83,000 tested, about 20% had one in any assay. The source made the active and inactive calls. The calls were made as follows: active = growth percent below 10; inactive = the rest.
Labels: True = active, False = inactive

molecule: CCOc1ccc(C(=O)NC(=S)Nc2ccc(S(N)(=O)=O)cc2)cc1
system.under.test: U251 CNS
classification: False
--
molecule: Cc1ccc([C@H]2C(C(=O)c3ccc(Cl)cc3)C3(N[C@@H]2c2ccccc2)C(=O)Nc2ccc(Br)cc23)cc1 (some centres undefined)
system.under.test: U251 CNS
classification: False
--
molecule: COc1cc2oc(-c3cccc(NC(=O)[C@H](CC(N)=O)NC(=O)OC(C)(C)C)c3)cc(=O)c2c(OC)c1OC
system.under.test: U251 CNS
classification: False
--
molecule: CN1CCN(c2ccc3c(c2)nc(NNC(=O)c2ncccn2)c2cccn23)CC1
system.under.test: U251 CNS
classification: True
--
molecule: CN(C)c1nc(NCCNS(=O)(=O)c2ccc(C(=O)/C=C/c3ccc(Cl)cc3)cc2)nc(Nc2ccc(F)cc2)n1
system.under.test: U251 CNS
classification: True
--
molecule: Cc1ccc(C2CC(c3ccc(S(=O)(=O)NCCNc4nc(Nc5ccc(F)cc5)nc(N(C)C)n4)cc3)=Nc3c(N)nc(N)nc3N2)cc1 (centres undefined)
system.under.test: U251 CNS
classification: False
--
molecule: N#Cc1c(-c2cccnc2)cc(-c2ccc3ccccc3c2)[nH]c1=O
system.under.test: U251 CNS
classification: False
--
molecule: COc1ccc(-c2nnc3ccc(N/N=C/c4ccc(C)cc4)nn23)cc1
system.under.test: U251 CNS
classification: False
--
molecule: COc1cc(C2CC(c3ccc(S(=O)(=O)NCCNc4nc(Nc5ccc(F)cc5)nc(N(C)C)n4)cc3)=Nc3c(N)nc(N)nc3N2)cc(OC)c1OC (centres undefined)
system.under.test: U251 CNS
classification: False
--
molecule: COc1ccc(NC(=O)Nc2ccc(OCc3ccc(F)cc3)cc2)cc1
system.under.test: U251 CNS
classification: False
--
molecule: O=C1Nc2ccc([N+](=O)[O-])cc2C1=Nc1ccccc1
system.under.test: U251 CNS
classification: False
--
molecule: COc1ccc(/C=C2\C(=O)Nc3ccc(Cl)cc32)cc1OCc1ccccn1
system.under.test: U251 CNS
classification: True
--
molecule: COc1cc(OC)cc(-c2cc3ccc(N(C)C)cc3c(=O)[nH]2)c1
system.under.test: U251 CNS
classification: True
--
molecule: NC(=S)Nc1cccc(NC(N)=S)c1
system.under.test: U251 CNS
classification: False
--
molecule: Cc1cc(C)cc(C(=O)Nc2cccc(-c3cn(-c4ccc(S(N)(=O)=O)cc4)nn3)c2)c1
system.under.test: U251 CNS
classification: False
--
molecule: O=C(/C=C/Nc1ccc2oc(=O)ccc2c1)c1cc2cc(Br)ccc2oc1=O
system.under.test: U251 CNS
classification: False
--
molecule: Cc1ccc(-n2c(-c3cc4ccccc4nc3Cl)noc2=O)cc1
system.under.test: U251 CNS
classification: False
--
molecule: COc1cccc(-c2nc(Nc3ccc(S(N)(=O)=O)cc3)c3ccccc3n2)c1
system.under.test: U251 CNS
classification: False
--
molecule: COc1cc2oc(-c3cccc(C(=O)Nc4cccc([N+](=O)[O-])c4)c3)cc(=O)c2c(OC)c1OC
system.under.test: U251 CNS
classification: False
